# System: Human alphaherpesvirus 2
# MEASUREMENT NOTES: Antiviral activity against Herpes simplex virus-2 G infected in human HEL cells assessed as reduction in virus-induced cytopathogenicity
# Format: functional, organism-based
# MEASUREMENT CONDITIONS: Human alphaherpesvirus 2, strain G
MEASURED METRIC: EC50

COMPOUND: CCCc1nc(N)[nH]c(=O)c1Br
SUBJECT OF TEST: Human alphaherpesvirus 2
EC50: > 100 µM
--
COMPOUND: Nc1nc(CCc2ccccc2)c(Br)c(=O)[nH]1
SUBJECT OF TEST: Human alphaherpesvirus 2
EC50: > 100 µM
--
COMPOUND: CCCCc1nc(N)[nH]c(=O)c1Br
SUBJECT OF TEST: Human alphaherpesvirus 2
EC50: > 100 µM

Quick batch: EC50 for everything below.
1. COc1ccc(/C=C/c2nc(N)[nH]c(=O)c2Br)cc1OC
2. Cc1cc(C)c(/C=C/c2nc(N)[nH]c(=O)c2Br)c(C)c1
3. CC(C)(O)Cc1nc(N)[nH]c(=O)c1Br
4. Nc1nc2c(ncn2COC(CO)CO)c(=O)[nH]1
5. Nc1nc(CC(O)c2ccccc2C(F)(F)F)c(Br)c(=O)[nH]1 (stereo not given)

A:
["> 100 µM", "> 20 µM", "> 100 µM", "0.9 µM", "> 100 µM"]

For each entry beneath this line, provide reported EC50.
1. CCCCCc1nc(N)[nH]c(=O)c1Br
2. Nc1nc(CC(O)c2ccc(Cl)cc2)c(Br)c(=O)[nH]1 (stereo not given)

A:
["> 100 µM", "> 100 µM"]
